measurement-target: Pdr3 (UniProt P33200)
Sequence: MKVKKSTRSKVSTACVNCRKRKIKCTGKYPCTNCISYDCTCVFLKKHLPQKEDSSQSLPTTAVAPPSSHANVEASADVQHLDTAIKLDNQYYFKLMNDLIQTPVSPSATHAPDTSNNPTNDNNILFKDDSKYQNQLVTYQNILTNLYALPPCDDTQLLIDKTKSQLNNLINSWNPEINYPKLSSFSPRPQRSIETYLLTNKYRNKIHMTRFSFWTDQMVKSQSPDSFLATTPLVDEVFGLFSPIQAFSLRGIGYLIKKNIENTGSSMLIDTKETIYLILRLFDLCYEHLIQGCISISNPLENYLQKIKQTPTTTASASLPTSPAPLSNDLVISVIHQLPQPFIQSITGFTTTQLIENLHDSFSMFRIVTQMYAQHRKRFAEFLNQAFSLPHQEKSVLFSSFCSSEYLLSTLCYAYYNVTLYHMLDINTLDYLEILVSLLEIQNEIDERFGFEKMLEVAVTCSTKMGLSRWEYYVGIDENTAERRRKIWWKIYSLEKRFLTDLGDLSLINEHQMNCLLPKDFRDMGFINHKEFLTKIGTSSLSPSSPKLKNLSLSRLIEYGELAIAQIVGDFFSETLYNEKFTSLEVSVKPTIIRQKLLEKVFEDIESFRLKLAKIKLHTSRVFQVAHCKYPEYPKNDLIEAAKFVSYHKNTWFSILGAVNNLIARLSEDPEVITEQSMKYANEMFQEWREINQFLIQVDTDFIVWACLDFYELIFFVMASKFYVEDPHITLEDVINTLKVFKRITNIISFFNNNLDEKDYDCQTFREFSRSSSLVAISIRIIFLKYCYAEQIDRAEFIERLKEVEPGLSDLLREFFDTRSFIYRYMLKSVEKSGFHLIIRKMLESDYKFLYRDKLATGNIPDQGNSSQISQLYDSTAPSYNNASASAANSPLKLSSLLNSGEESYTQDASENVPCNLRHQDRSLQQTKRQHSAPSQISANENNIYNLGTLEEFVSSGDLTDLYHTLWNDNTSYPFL
assay-comment: PBM E-score (8-mer binding enrichment) (E-score (-0.5 to 0.5)); higher = stronger / more preferred TF binding
experimental-setup: protein concentration: 200 nM; construct: GST-full length
The full ranking holds about 33,000 sequences; the median of “E-score (-0.5 to 0.5)” is about -0.035, and the highest 2% start at about 0.35. The entries come from a sample that favours the highest values as a whole.

{"columns": ["sequence", "PBM E-score"],
 "data": [
  ["ACGCGCAC", -0.111],
  ["CCGTTCCG", 0.477],
  ["GGCACTAA", 0.156],
  ["AATTCCGA", 0.423],
  ["ATGTTCCC", 0.153],
  ["ATAGTCAT", -0.0921],
  ["CTGATAGA", -0.118],
  ["CGAGCGGA", 0.359],
  ["CCAGTGCC", -0.1],
  ["AATCCTCA", -0.244],
  ["AGGTTCCA", -0.018],
  ["CGTCGGAA", 0.411],
  ["AATTCCCA", -0.171],
  ["ACCAGTAT", 0.0888],
  ["AATTCCCT", -0.207],
  ["CCGTTCCC", 0.253],
  ["GCTCCGTA", 0.32],
  ["GATCGCCC", 0.00089],
  ["CCTCCGGA", 0.416],
  ["ACGTTCCA", 0.0623],
  ["AGGTTCCG", 0.478],
  ["AGTATTGC", -0.0115],
  ["CGTGCTTA", 0.0586],
  ["ATGTTCCA", 0.0325],
  ["ATGTTCCG", 0.48]
]}
